assay summary: Half life in rat at 5 mg/kg, po
Assay type: ADME, organism-based
Parameters: dose 5 mg/kg, route oral
condition info: in vivo
Kindly supply the reported half-life values for the records listed here.
# number only, unit h dropped from output

**Query** Name the recorded half-life for CO/N=C(\C)c1ccc2c(c1)c1c3c(c4c(c1n2CC(C)C)CCc1nn(C)cc1-4)C(=O)NC3 .
**Result** 6.5

**Query** Name the recorded half-life for CCO/N=C(\C)c1ccc2c(c1)c1c3c(c4c(c1n2C(C)C)CCc1nn(C)cc1-4)C(=O)NC3 .
**Result** 3.2

----------
Kindly supply the reported AUC(0-inf) values for the records listed here.
assay summary: AUC (0 to infinity) in rat at 5 mg/kg, po
Format: ADME, organism-based
Parameters: time infinity, dose 5 mg/kg, route oral
condition info: plasma
# number only, unit ng·h/mL dropped from output

**Query** Name the recorded AUC(0-inf) for CCO/N=C(\C)c1ccc2c(c1)c1c3c(c4c(c1n2C(C)C)CCc1nn(C)cc1-4)C(=O)NC3 .
**Result** 3610

**Query** Name the recorded AUC(0-inf) for CO/N=C(\C)c1ccc2c(c1)c1c3c(c4c(c1n2CC(C)C)CCc1nn(C)cc1-4)C(=O)NC3 .
**Result** 9060

----------
target entity: Angiopoietin-1 receptor (Homo sapiens)
Sequence (Q02763 whole entry): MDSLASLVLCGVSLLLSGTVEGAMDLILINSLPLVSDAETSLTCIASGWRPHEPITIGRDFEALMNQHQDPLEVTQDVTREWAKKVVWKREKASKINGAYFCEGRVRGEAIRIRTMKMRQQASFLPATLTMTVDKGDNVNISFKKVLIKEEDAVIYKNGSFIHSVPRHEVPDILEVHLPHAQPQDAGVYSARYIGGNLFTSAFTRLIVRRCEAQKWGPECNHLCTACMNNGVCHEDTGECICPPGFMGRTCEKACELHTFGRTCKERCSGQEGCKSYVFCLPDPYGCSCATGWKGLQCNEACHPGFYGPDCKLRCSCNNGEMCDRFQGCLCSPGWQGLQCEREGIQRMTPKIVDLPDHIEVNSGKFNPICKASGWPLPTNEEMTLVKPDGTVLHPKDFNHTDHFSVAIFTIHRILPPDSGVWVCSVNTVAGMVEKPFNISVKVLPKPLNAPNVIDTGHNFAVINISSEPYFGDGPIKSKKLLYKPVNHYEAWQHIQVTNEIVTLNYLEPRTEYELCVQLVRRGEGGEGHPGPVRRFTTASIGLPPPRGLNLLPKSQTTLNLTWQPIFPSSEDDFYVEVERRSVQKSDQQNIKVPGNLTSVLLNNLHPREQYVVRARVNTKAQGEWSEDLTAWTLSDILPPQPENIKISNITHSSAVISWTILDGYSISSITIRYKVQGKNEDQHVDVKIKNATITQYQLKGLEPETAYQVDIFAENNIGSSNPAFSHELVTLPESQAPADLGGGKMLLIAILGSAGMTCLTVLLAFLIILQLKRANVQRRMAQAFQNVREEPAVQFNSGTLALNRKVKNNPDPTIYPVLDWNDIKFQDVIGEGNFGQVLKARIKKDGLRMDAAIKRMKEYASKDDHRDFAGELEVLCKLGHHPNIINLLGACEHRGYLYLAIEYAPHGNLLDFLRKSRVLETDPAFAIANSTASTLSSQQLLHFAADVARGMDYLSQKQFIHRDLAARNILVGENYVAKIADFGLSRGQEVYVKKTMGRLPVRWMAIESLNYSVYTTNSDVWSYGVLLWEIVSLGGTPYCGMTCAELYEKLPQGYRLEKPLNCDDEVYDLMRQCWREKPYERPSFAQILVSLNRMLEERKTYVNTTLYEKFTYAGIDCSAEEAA
assay summary: Inhibition of human recombinant TIE2 by HTRF assay
measured attribute: IC50 (nM)
# number only, unit nM dropped from output

**Query** Name the recorded IC50 for CCO/N=C(\C)c1ccc2[nH]c3c4c(c5c(c3c2c1)CNC5=O)-c1cn(C)nc1CC4 .
**Result** 23

**Query** Name the recorded IC50 for CCO/N=C/c1ccc2[nH]c3c4c(c5c(c3c2c1)CNC5=O)-c1cn(C)nc1CC4 .
**Result** 264

**Query** Name the recorded IC50 for CO/N=C/c1ccc2[nH]c3c4c(c5c(c3c2c1)CNC5=O)-c1cn(C)nc1CC4 .
**Result** 148

**Query** Name the recorded IC50 for C/C(=N\OCC(C)C)c1ccc2c(c1)c1c3c(c4c(c1n2C(C)C)CCc1nn(C)cc1-4)C(=O)NC3 .
**Result** 46

**Query** Name the recorded IC50 for C/C(=N\OC(C)C)c1ccc2[nH]c3c4c(c5c(c3c2c1)CNC5=O)-c1cn(C)nc1CC4 .
**Result** 28

**Query** Name the recorded IC50 for CO/N=C(/c1ccc2[nH]c3c4c(c5c(c3c2c1)CNC5=O)-c1cn(C)nc1CC4)C(C)C .
**Result** 264

**Query** Name the recorded IC50 for COc1ccc(-c2oc3ncnc(N)c3c2-c2ccc(NC(=O)Nc3c(F)cccc3C(F)(F)F)cc2)cc1 .
**Result** 2

**Query** Name the recorded IC50 for CCO/N=C(\C)c1ccc2c(c1)c1c3c(c4c(c1n2C(C)C)CCc1nn(C)cc1-4)C(=O)NC3 .
**Result** 26

**Query** Name the recorded IC50 for C/C(=N\OC(C)C)c1ccc2c(c1)c1c3c(c4c(c1n2CC(C)C)CCc1nn(C)cc1-4)C(=O)NC3 .
**Result** 52

----------
pIC50: −log10 of the molar value.
measured attribute: pIC50

**Query** // map CO/N=C(\C)c1ccc2c(c1)c1c3c(c4c(c1n2CC(C)C)CCc1nn(C)cc1-4)C(=O)NC3 to recorded pIC50 (system: Epidermal growth factor receptor (Homo sapiens, UniProt P00533))
Sequence (P00533 whole entry): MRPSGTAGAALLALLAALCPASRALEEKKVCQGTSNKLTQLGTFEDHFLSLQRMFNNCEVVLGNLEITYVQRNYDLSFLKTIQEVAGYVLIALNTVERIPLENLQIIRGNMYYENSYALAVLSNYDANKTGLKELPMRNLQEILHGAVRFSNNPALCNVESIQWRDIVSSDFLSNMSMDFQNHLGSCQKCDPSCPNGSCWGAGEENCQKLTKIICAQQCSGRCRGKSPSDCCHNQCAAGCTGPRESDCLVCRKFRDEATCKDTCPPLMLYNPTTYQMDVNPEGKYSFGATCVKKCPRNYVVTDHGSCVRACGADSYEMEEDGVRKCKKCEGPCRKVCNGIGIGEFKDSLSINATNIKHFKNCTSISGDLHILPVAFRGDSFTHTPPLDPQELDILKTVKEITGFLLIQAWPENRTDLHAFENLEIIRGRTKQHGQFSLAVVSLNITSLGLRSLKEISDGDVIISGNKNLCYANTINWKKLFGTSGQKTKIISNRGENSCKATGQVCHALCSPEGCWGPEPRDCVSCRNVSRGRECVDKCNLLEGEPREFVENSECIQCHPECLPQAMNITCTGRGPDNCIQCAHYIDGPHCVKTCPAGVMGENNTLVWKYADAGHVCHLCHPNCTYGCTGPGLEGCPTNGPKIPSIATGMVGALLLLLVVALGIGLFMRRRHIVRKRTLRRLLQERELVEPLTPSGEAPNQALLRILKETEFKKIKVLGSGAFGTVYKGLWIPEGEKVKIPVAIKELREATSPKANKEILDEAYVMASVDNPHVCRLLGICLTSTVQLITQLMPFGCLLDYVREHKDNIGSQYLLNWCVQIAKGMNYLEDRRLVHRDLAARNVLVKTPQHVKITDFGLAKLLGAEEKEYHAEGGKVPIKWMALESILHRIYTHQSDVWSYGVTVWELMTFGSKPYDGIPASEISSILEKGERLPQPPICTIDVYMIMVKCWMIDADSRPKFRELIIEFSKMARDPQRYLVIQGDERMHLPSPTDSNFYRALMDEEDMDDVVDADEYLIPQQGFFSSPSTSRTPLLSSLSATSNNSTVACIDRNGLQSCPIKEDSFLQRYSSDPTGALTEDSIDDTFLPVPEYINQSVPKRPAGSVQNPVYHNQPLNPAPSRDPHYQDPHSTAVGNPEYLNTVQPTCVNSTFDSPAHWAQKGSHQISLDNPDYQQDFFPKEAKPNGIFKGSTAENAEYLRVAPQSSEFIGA
**Result** < 6.00

----------
assay summary: Half life in rat at 1 mg/kg, iv
Type: ADME, organism-based
Parameters: dose 1 mg/kg, route intravenous
condition info: in vivo
measured attribute: half-life (h)
# number only, unit h dropped from output

**Query** Name the recorded half-life for CO/N=C(\C)c1ccc2c(c1)c1c3c(c4c(c1n2CC(C)C)CCc1nn(C)cc1-4)C(=O)NC3 .
**Result** 1.4

**Query** Name the recorded half-life for CCO/N=C(\C)c1ccc2c(c1)c1c3c(c4c(c1n2C(C)C)CCc1nn(C)cc1-4)C(=O)NC3 .
**Result** 2

----------
target entity: Vascular endothelial growth factor receptor 3 (Homo sapiens)
Sequence (P35916 whole entry): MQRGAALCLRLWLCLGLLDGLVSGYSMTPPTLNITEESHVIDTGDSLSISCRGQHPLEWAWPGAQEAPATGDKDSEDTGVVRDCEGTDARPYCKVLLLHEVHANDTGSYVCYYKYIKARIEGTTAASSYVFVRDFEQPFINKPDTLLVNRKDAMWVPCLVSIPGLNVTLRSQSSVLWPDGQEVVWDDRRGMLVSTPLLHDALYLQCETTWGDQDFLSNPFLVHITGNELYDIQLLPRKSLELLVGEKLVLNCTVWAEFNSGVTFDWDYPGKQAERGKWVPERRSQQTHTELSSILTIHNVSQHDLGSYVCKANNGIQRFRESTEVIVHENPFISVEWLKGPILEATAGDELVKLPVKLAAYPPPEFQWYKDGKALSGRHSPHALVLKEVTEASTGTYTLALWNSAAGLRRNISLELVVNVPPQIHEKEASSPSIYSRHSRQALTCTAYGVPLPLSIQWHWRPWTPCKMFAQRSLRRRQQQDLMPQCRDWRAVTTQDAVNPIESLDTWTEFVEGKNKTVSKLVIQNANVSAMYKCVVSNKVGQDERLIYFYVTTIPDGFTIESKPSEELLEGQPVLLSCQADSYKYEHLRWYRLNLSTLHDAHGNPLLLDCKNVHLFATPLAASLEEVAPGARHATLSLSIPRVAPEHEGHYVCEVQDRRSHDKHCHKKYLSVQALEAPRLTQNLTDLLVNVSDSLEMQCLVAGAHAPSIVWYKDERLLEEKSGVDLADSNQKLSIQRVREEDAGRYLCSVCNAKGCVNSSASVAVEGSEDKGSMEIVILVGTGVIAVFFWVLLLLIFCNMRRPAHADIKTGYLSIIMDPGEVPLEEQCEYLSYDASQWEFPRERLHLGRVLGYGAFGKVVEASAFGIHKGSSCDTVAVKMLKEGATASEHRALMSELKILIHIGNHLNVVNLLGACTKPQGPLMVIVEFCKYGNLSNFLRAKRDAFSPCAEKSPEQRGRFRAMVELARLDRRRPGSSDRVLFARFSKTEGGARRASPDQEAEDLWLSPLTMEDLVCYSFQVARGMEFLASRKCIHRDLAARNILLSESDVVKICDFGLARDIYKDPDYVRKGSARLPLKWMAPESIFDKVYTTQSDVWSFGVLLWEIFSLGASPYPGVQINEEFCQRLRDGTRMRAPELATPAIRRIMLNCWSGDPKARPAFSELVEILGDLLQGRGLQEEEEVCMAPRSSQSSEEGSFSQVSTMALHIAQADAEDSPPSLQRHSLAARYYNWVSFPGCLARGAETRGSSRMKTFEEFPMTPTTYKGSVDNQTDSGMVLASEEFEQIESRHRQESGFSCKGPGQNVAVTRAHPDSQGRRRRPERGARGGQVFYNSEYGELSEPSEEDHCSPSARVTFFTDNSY
measured attribute: IC50 (nM)
# number only, unit nM dropped from output

**Query** Name the recorded IC50 for CO/N=C(\C)c1ccc2c(c1)c1c3c(c4c(c1n2CC(C)C)CCc1nn(C)cc1-4)C(=O)NC3 .
**Result** 10
